Measurement Description: chemical genetic growth profiling, strain panel (AID 1159580);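 further: tested at 20 µM; growth read once vehicle control cultures reached saturation at 30 °C; 1 = growth at the plate median or of vehicle wells; lower values mean less growth of the strain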
Condition Label: S. cerevisiae deletion strains, growth OD, locus YNL271C, strain bni1
The campaign covered roughly 5,500 compounds. About 2,000 (36%) were called active. Inconclusive results (about 18%) are left out. No stated cut-off is given here; in the data, active means normalized growth mostly below about 0.91 (no sharp cut-off); inconclusive means no clear call, values can overlap the other calls; inactive means mostly above about 0.92. The list shows a part of the results.
Hi! Could you answer with just one of these? 1 (yes) = active, 0 (no) = inactive

Examples with answers:
INSERT INTO measurements (compound, classification) VALUES
  ('CC(=O)O[C@@](C)(CCC=C(C)C)C1CC=C(C)CC1 (stereo not given in full)', '0 (no)'),
  ('CC(C)CC1C(=O)N2CCC[C@H]2C2(O)O[C@](NC(=O)C3C=C4c5cccc6[nH]c(Br)c(c56)C[C@H]4N(C)C3)(C(C)C)C(=O)N12 (stereo not given in full)', '0 (no)');

Hi, do you know how CCc1cccc(C)c1N(C(=O)CCl)C(C)COC (stereo not given) came out in this test?
0 (no)

Hi, do you know how CCC(C(=O)O)c1ccccc1 (stereo not given) came out in this test?
0 (no)

Hi, do you know how C=C(C)/C=C1/C=CC(=O)C(C)=C1 came out in this test?
1 (yes)

Hi, do you know how COc1ccc2cc1Oc1ccc(cc1)C[C@H]1c3cc(c(OC)cc3CCN1C)Oc1c(OC)c(OC)cc3c1[C@H](C2)N(C)CC3 came out in this test?
0 (no)

Hi, do you know how O=C(O)c1ccccc1OP(=O)(O)O came out in this test?
0 (no)

Hi, do you know how O=C1CC(c2ccc(O)cc2)Oc2ccccc21 (stereo not given) came out in this test?
1 (yes)

Hi, do you know how COc1cc(OC)c2c(c1)OC(c1ccccc1)CC2=O (stereo not given) came out in this test?
0 (no)

Hi, do you know how COC(=O)COc1cc(Cl)c(Cl)cc1Cl came out in this test?
0 (no)

Hi, do you know how c1ccc(CC2=NCCN2)cc1 came out in this test?
1 (yes)

Hi, do you know how Cc1c(N(C)C)c(=O)n(-c2ccccc2)n1C came out in this test?
0 (no)

Hi, do you know how CC(C)(C)CC(C)(C)c1ccc(OCCOCC[N+](C)(C)Cc2ccccc2)cc1 came out in this test?
0 (no)

Hi, do you know how CC(=O)O[C@]1(C(C)=O)CCC2C3C[C@H](C)C4=CC(=O)CC[C@]4(C)C3CC[C@@]21C (stereo not given in full) came out in this test?
0 (no)

Hi, do you know how O=C1C[C@@H](c2ccc(O)cc2)Oc2cc(O)cc(O)c21 came out in this test?
0 (no)

Hi, do you know how NC/C=C/C(=O)O came out in this test?
0 (no)

Hi, do you know how O=C(O)COc1cc(Cl)c(Cl)cc1Cl came out in this test?
0 (no)

Hi, do you know how CCC(C(N)=O)c1ccccc1 (stereo not given) came out in this test?
0 (no)

Hi, do you know how CC1(O)/C=C/C=C(\CO)C2CC(C)(C)C2(O)CC1 (stereo not given) came out in this test?
0 (no)

Hi, do you know how CC(C)N(C(=O)CCl)c1ccccc1 came out in this test?
0 (no)

====

I'd be grateful if you could share measured normalized growth for these entries.
Measurement Description: chemical genetic growth profiling, strain panel (AID 1159580)
Condition Label: S. cerevisiae deletion strains, growth OD, locus YDR052C, strain DBF4, hits give low values
The whole screen tested about 5,500 compounds, of which about 2,000 (36%) were called active. Another 18% or so got no clear call; they are omitted. The list shows a part of the results.
One number for each entry.

Some entries whose results are on file:
INSERT INTO assay_data (molecule, quantitative_readout) VALUES
  ('O=C(Nc1cc(Cl)cc(Cl)c1)Nc1cc(-c2cccs2)[nH]n1', 0.978),
  ('Cc1ccccc1C(=O)N1CCc2c([nH]c3ccccc23)C1C(F)(F)F (configuration not stated)', 0.989),
  ('NC(N)=Nc1nc(-c2cc(Cl)sc2Cl)cs1', 0.99),
  ('NCCCN=c1ccc2c3c1c(O)c1c(O)ccc(=O)c1c3[nH]n2CCNCCO', 0.976),
  ('Cc1cc(SCc2[nH]nc3oc(=O)cc(C)c23)c(Cl)cc1Cl', 0.981),
  ('N#C/C(=C\c1ccccc1Sc1ccc(Cl)cc1)S(=O)(=O)c1ccccn1', 0.98);

# ---- query molecule ----
Given the molecule Cn1cncc1S(=O)(=O)/C(C#N)=C/c1ccccc1Sc1ccc(Cl)cc1 , what is its reported normalized growth?
0.983

====

Measurement Description: chemical genetic growth profiling, strain panel (AID 1159580);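 further: tested at 20 µM; growth read once vehicle control cultures reached saturation at 30 °C; 1 = growth at the plate median or of vehicle wells; lower values mean less growth of the strain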
Condition Label: S. cerevisiae deletion strains, growth OD, locus YOL012C, strain htz1
About 2,000 (36%) of roughly 5,500 compounds were called active. Not shown: some 18% with an inconclusive outcome. Some of the results follow.
I'd be grateful if you could share measured normalized growth for these entries.
One number for each entry.

Some entries whose results are on file:
INSERT INTO assay_data (compound, quantitative_readout) VALUES
  ('CCC1(c2ccc(N)cc2)CCC(=O)NC1=O (stereo not drawn)', 0.83),
  ('COc1c(CC=C(C)C)c2c(c3oc(=O)c(-c4ccc(OC(C)=O)cc4)c(OC(C)=O)c13)C=CC(C)(C)O2', 1.04),
  ('COc1c(CC=C(C)C)c2c(c3oc(=O)c(-c4ccc(O)cc4)c(O)c13)C=CC(C)(C)O2', 0.812),
  ('COc1c(O)cc2oc3cc(O)c(CC=C(C)C)c(O)c3c(=O)c2c1CC=C(C)C', 0.271),
  ('CC(C)N(C(=O)CCl)c1ccccc1', 0.89),
  ('Cc1c(O)cc(O)c2c(=O)c(-c3ccc(O)cc3)coc12', 1.03);

Would you mind giving normalized growth for every compound in the list below?
1. Cc1cc(=O)c2c(O)c(C)c(O)cc2o1
2. CCC1(C)CC(=O)NC1=O (stereo not drawn)
3. Cc1cc(=O)c2c(O)cc(O)c(C)c2o1
4. CCC(C(=O)O)c1ccccc1 (stereo not drawn)
5. CCC1(c2ccccc2)C(=O)NCNC1=O
6. COc1ccc(-c2c(O)c3cc4c(c(CC=C(C)C)c3oc2=O)OC(C)(C)CC4)cc1
7. C=C(C)/C=C1/C=CC(=O)C(C)=C1

1: 1.07; 2: 0.885; 3: 0.94; 4: 2.17; 5: 0.947; 6: 1.44; 7: 0.247

====

Measurement Description: chemical genetic growth profiling, strain panel (AID 1159580);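 further: tested at 20 µM; growth read once vehicle control cultures reached saturation at 30 °C; 1 = growth at the plate median or of vehicle wells; lower values mean less growth of the strain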
Condition Label: S. cerevisiae deletion strains, growth OD, locus YJR043C, strain POL32, hits give low values
The whole screen tested about 5,500 compounds, of which about 2,000 (36%) were called active. Roughly 18% stayed inconclusive and do not appear here. The list shows a part of the results.
I'd be grateful if you could share measured normalized growth for these entries.
Answers are plain numbers.

Some entries whose results are on file:
INSERT INTO results (molecule, quantitative_readout) VALUES
  ('NC(N)=Nc1nc(CSCCC(N)=NS(N)(=O)=O)cs1', 1.01),
  ('O=[N+]([O-])O[C@H]1CO[C@H]2[C@@H]1OC[C@H]2O[N+](=O)[O-]', 1.02);

Would you mind giving normalized growth for every molecule in the list below?
1. Cc1c(O)cc(O)c2c(=O)c(-c3ccc(O)cc3)coc12
2. C/C=C(/C(=C/C)c1ccc(O)cc1)c1ccc(O)cc1
3. O=C(Nc1ccccc1C(=O)NC1CCCCNC1=O)c1cccs1 (centres undefined)
4. C=CC1=C(C(=O)O)N2C(=O)[C@@H](NC(=O)/C(=N/O)c3csc(N)n3)[C@H]2SC1
5. Cn1cc[nH]c1=S

1. 0.997
2. 0.971
3. 0.972
4. 1.01
5. 1.02

Would you mind giving normalized growth for every molecule in the list below?
1. Cc1cc(=O)c2c(O)cc(O)c(C)c2o1
2. CC1(C)/C(=N/OC(=O)c2cccc(C(F)(F)F)c2)[C@]2(C)CCC1C2
3. COc1cc(O)c2c(=O)cc(C)oc2c1CC=C(C)C

1.05
0.978
0.87

====

Measurement Description: chemical genetic growth profiling, strain panel (AID 1159580);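 further: tested at 20 µM; growth read once vehicle control cultures reached saturation at 30 °C; 1 = growth at the plate median or of vehicle wells; lower values mean less growth of the strain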
Condition Label: S. cerevisiae deletion strains, growth OD, locus YDR318W, strain mcm21, hits give low values
Hit rate of the full screen: of about 5,500 compounds, about 2,000 (36%) were called active. About 18% were inconclusive and are not listed. Some of the results follow.
Observation Type: normalized growth

INSERT INTO results (molecule, observation_type, result) VALUES
  ('Cn1cc[nH]c1=S', 'normalized growth', '0.968 (inactive)'),
  ('COc1c2c(c(CC=C(C)C)c3oc(=O)c(-c4ccc(O)cc4)c(O)c13)OC(C)(C)C=C2', 'normalized growth', '0.681 (active)'),
  ('OC(CCN1CCCCC1)(c1ccccc1)c1ccccc1', 'normalized growth', '1.01 (inactive)'),
  ('CN1CCc2cc3c(cc2C1O)OCO3 (configuration not stated)', 'normalized growth', '0.978 (inactive)');

Would you mind giving normalized growth for every molecule in the list below?
1. Oc1c(Cl)c(Cl)c(Cl)c(Cl)c1Cl
2. O[C@H]1C=C2CCN3Cc4cc5c(cc4C(C23)[C@@H]1O)OCO5 (some centres not stated)
3. NC(N)=NOCC[C@H](N)C(=O)O
4. COc1ccc(C[C@H]2NC[C@H](O)[C@H]2OC(C)=O)cc1
5. C=C(C)/C=C1/C=CC(=O)C(C)=C1
6. Cc1ccc(C(=O)C(C)CN2CCCCC2)cc1 (configuration not stated)
7. CN1Cc2c(ccc3c2OCO3)C2C(O)Cc3cc4c(cc3C21)OCO4 (configuration not stated)
8. COc1c(CC=C(C)C)c2c(c3oc(=O)c(-c4ccc(O)cc4)c(O)c13)C=CC(C)(C)O2

1. 0.686 (active)
2. 0.466 (active)
3. 0.983 (inactive)
4. 0.7 (active)
5. 0.0733 (active)
6. 1.02 (inactive)
7. 0.998 (inactive)
8. 0.896 (active)
